Origin of the recorded values: patent US9796733B2

# system: sGC α1/β1 heterodimer (Homo sapiens, UniProt Q02108+Q02153)
# Construct: expressed in transfected cells; host or cells: CHO-K1 (clone #7, CHO-K1/sGC)
# Sequence (Q02108 1-690): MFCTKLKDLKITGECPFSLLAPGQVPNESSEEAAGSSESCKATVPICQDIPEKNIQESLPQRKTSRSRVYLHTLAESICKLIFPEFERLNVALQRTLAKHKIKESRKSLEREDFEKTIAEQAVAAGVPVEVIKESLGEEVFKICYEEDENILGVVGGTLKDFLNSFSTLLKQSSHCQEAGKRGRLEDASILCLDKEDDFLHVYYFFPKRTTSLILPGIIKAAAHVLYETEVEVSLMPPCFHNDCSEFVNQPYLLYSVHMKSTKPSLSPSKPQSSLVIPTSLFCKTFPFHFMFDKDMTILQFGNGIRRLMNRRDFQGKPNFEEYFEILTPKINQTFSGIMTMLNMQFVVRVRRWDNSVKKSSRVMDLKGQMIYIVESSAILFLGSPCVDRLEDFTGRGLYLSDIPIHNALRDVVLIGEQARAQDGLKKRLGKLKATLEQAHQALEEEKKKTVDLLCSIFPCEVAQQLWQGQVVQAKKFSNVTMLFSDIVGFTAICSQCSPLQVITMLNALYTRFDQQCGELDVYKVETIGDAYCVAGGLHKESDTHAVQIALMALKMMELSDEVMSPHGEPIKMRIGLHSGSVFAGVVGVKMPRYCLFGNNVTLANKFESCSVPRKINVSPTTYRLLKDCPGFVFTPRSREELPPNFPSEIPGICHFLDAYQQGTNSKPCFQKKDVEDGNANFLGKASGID
# Sequence (Q02153 1-619): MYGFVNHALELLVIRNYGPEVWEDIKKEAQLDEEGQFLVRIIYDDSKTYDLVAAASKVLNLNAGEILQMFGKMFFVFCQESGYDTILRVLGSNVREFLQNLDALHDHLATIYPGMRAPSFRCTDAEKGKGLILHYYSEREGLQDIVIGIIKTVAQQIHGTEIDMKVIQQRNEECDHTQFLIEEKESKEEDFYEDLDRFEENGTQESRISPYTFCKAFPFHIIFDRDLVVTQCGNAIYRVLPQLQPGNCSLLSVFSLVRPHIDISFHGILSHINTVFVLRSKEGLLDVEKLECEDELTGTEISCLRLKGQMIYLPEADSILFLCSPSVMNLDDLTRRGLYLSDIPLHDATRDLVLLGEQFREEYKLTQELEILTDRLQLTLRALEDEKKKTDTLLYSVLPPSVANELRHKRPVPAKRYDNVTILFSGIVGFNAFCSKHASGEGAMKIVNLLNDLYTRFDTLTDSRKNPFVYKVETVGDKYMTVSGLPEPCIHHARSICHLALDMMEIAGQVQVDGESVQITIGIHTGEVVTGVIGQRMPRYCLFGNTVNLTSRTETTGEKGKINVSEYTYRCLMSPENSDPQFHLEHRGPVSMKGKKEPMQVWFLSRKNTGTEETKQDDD
# assay.protocol: Cell-based sGC functional assay (CASA assay): cGMP generation in CHO-K1/sGC cells, HTRF detection
# setup.conditions: CHO-K1, percent activation relative to standard Compound A in CHO-K1/sGC cells; read-out: % Act.
measured.metric: Emax (%)

# count of solved cases: 6
compound="CC1(c2ccc(Cl)cc2)C(=O)Nc2nc(-c3cn4cc(C(F)(F)F)nc4c(Cc4cccc(F)c4)n3)nc(N)c21 (centres unmarked) [Example 150A]" readout_number=122
compound="Cc1nc(C2(C3CC3)C(=O)Nc3nc(-c4cn5ccnc5c(CCCC(F)(F)F)n4)nc(N)c32)ccc1F (single isomer, unassigned) [Example 362B]" readout_number=140
compound="CC(C)CCc1nc(-c2nc(N)c3c(n2)NC(=O)C3(C)c2ccc(Cl)cc2)cn2ccnc12 (centres unmarked) [Example 14A]" readout_number=113
compound="CC1(c2ccc(F)cn2)C(=O)Nc2nc(-c3cn4c(Br)cnc4c(CCC(F)(F)C(F)(F)F)n3)nc(N)c21 (centres unmarked) [Example 262B]" readout_number=105
compound="CCCCc1nc(-c2nc(N)c3c(n2)NC(=O)C3(c2ccc(Cl)cc2)C2CCC2)cn2ccnc12 (single isomer, unassigned) [Example 358B]" readout_number=120
compound="CC1(C2CC2)C(=O)Nc2nc(-c3cn4ccnc4c(Cc4ccccc4)n3)nc(N)c21 (centres unmarked) [Example 82A]" readout_number=120

(P) CC1(C)C(=O)Nc2nc(-c3cn4ccnc4c(Cc4ccc(F)cc4)n3)nc(N)c21 [Example 72]
(Q) Cc1cc(F)cnc1C1(C2CC2)C(=O)Nc2nc(-c3cn4ccnc4c(CCC(F)(F)C(F)(F)F)n3)nc(N)c21 (single isomer, unassigned) [Example 375B]
(R) CC(F)(F)c1ccc(C2(C)C(=O)Nc3nc(-c4cn5ccnc5c(CCCC(F)(F)F)n4)nc(N)c32)cn1 (single isomer, unassigned) [Example 380B]
Put these in order: smallest Emax first, largest last. In plain terms: list the labels in the order you were asked to.
Q, P, R
(Q: 41%, P: 126%, R: 181%)
